Molecular target: SCD5 (Homo sapiens)
Construct: host or cells: S. cerevisiae ole1Δ strain (W303 pdr1Δ pdr3Δ background), plasmid pRS316 with TDH3 promoter and CYC1 terminator
Sequence (Q86SK9 1-330): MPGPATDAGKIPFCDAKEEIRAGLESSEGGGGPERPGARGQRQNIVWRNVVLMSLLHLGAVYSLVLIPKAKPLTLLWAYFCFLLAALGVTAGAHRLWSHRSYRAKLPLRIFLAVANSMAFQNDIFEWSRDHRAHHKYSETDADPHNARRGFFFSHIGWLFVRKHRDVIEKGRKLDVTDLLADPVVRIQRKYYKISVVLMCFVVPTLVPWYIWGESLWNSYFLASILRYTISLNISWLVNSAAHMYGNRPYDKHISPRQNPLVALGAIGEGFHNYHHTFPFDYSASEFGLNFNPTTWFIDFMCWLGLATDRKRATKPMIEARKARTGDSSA
Assay: Growth inhibition of humanized yeast strain expressing SCD5 as sole desaturase
Assay type: cell-based
Settings: humanized yeast strain, 40 h
Response field label: string, one of 1 (IC50 strictly below 100 nM) or -1.

>  <compound>
CC(C)C(=O)N1CCC(c2noc(-c3ccc4cnn(C5COC5)c4c3F)n2)CC1

>  <group.label>
-1

$$$$
>  <compound>
CC(C)n1nc(CCN(C)C)c2ccc(-c3noc(C4CCN(C(=O)OC(C)(C)C)CC4)n3)cc21

>  <group.label>
-1

$$$$
>  <compound>
CC(C)(C)CC(=O)N1CCC(c2nc(-c3ccc4cnn(C5CCOC5)c4c3)no2)CC1 (centres unmarked)

>  <group.label>
1

$$$$
>  <compound>
CC(C)(C)OC(=O)N1CCC(c2nc(-c3ccc4cnn([C@H]5C[C@@H](O)C5)c4c3)no2)CC1 [Compound 822]

>  <group.label>
-1

$$$$
>  <compound>
CC1(OC(=O)N2CCC(c3noc(-c4cc(F)c5cnn(C6COC6)c5c4)n3)CC2)CC1

>  <group.label>
1

$$$$
>  <compound>
CC(C)(C)OC(=O)N1CCC(c2nc(N3CCC34COC4)no2)CC1

>  <group.label>
-1

$$$$
>  <compound>
CC(C)n1ncc2ccc(-c3noc(C4CCN(C(C)C(F)(F)F)CC4)n3)cc21 (centres unmarked)

>  <group.label>
-1

$$$$
>  <compound>
COC1(c2nc(-c3ccc4cnn(C(C)C)c4c3)no2)CCN(C(=O)OC(C)(C)C)CC1

>  <group.label>
-1

$$$$
>  <compound>
CC(C)(C)OC(=O)N1CCC(c2noc(-c3ccccc3N3CCOCC3)n2)CC1

>  <group.label>
-1

$$$$
>  <compound>
COC(=O)N1CCC(c2nc(-c3ccc4cnn(C5CNC5)c4c3)no2)CC1

>  <group.label>
-1

$$$$
>  <compound>
CC(C)(C)OC(=O)N1CCC(c2noc(-c3ccnc(C4CCOC4)c3)n2)CC1 (centres unmarked)

>  <group.label>
1

$$$$
>  <compound>
COC(=O)N1CC2(CC(c3noc(-c4ccc5cnn(C6COC6)c5c4)n3)C2)C1

>  <group.label>
-1

$$$$
>  <compound>
CC(C)(C)OC(=O)N1CCC(c2noc(-c3ccn(C4COC4)c(=O)c3)n2)CC1

>  <group.label>
-1

$$$$
>  <compound>
O[C@H]1C[C@@H](n2ncc3ccc(-c4nc(N5CCn6c(Cl)cnc6C5)no4)cc32)C1

>  <group.label>
-1

$$$$
>  <compound>
O=C(c1ccccc1F)N1CCC(c2noc(-c3ccnc(NC4COC4)c3)n2)CC1

>  <group.label>
-1

$$$$
>  <compound>
O=C(c1ccccc1F)N1CCC(c2noc(-c3ccnc(C4CCOC4)c3)n2)CC1 (centres unmarked)

>  <group.label>
-1

$$$$
>  <compound>
O=C(CC1CC1)N1CCC(c2noc(-c3ccnc(C4CCOC4)c3)n2)CC1 (centres unmarked)

>  <group.label>
-1

$$$$
>  <compound>
COC(=O)N1CCC(c2noc(-c3ccc4ccn(C(C)C)c4c3)n2)CC1

>  <group.label>
-1

$$$$
>  <compound>
C[C@H]1C[C@H](c2noc(-c3ccc4cnn(C5COC5)c4c3)n2)CCN1C(=O)C1(F)CC1

>  <group.label>
1

$$$$
>  <compound>
COC(=O)N1CCC(c2noc(-c3cc(C)c4cnn(C5COC5)c4c3)n2)CC1

>  <group.label>
1

$$$$
>  <compound>
CC(C)(C)OC(=O)N1CCC(c2nc(-c3ccc4cnn([C@H]5C[C@H](OC(=O)c6ccc([N+](=O)[O-])cc6)C5)c4c3)no2)CC1

>  <group.label>
-1

$$$$
>  <compound>
O=C(C1CC1)N1CCN(c2noc(-c3ccc4cnn(C5COC5)c4c3)n2)CC1

>  <group.label>
1

$$$$
>  <compound>
CC(C)(C)OC(=O)N1CCC(c2nc(-c3ccc4c(Br)ncn4c3)no2)CC1

>  <group.label>
-1

$$$$
>  <compound>
O=C(N1CCC(c2noc(-c3ccnc(C4CCOC4)c3)n2)CC1)C1(F)CCC1 (centres unmarked)

>  <group.label>
1

$$$$
>  <compound>
COC1(C(=O)N2CCC(c3noc(-c4ccc5cnn(C6COC6)c5c4)n3)CC2)CC1

>  <group.label>
1

$$$$
>  <compound>
CC(C)n1ncc2c1CN(c1noc(C3CCN(C(=O)OC(C)(C)C)CC3)n1)CC2 [Compound 827]

>  <group.label>
-1

$$$$
>  <compound>
COC(=O)N1CCC(c2noc(-c3ccc4cnn(C5CCOC5)c4c3)n2)CC1 (centres unmarked)

>  <group.label>
1

$$$$
>  <compound>
CC1(OC(=O)N2CCC(c3nnc(-c4ccc5cnn(C6COC6)c5c4)o3)CC2)CC1

>  <group.label>
-1

$$$$
>  <compound>
O=C(C1CCC1)N1CCC(c2noc(-c3ccc4cnn([C@@H]5CCOC5)c4c3)n2)CC1

>  <group.label>
1

$$$$
>  <compound>
O=C(N1CCC(c2noc(-c3ccc4cnn(C5COC5)c4c3)n2)CC1)C12CC(F)(C1)C2

>  <group.label>
1

$$$$
>  <compound>
CC(C)n1cc2c(n1)CN(c1noc(C3CCN(C(=O)OC(C)(C)C)CC3)n1)CC2 [Compound 868]

>  <group.label>
-1

$$$$
>  <compound>
CC(C)(C)OC(=O)N1CCN(c2noc(-c3ccnc(NC4COC4)c3)n2)CC1

>  <group.label>
-1

$$$$

====

target: SCD5 (Homo sapiens, UniProt Q86SK9); construct: host or cells: S. cerevisiae ole1Δ strain (W303 pdr1Δ pdr3Δ background), plasmid pRS316 with TDH3 promoter and CYC1 terminator; assay: Growth inhibition of humanized yeast strain expressing SCD5 as sole desaturase; type: cell-based; details: humanized yeast strain expressing SCD5
SCD5 % Max Inhibition listing for selected compounds.
quantity.kind: SCD5 % Max Inhibition (%)

>  <compound>
CC(C)c1ccc(C(=O)N2CCC(c3nc(N4CC5(COC5)C4)no3)CC2)cc1 [Compound 337]

>  <subject.of.test>
SCD5 (Homo sapiens, UniProt Q86SK9)

>  <quantity.kind>
SCD5 % Max Inhibition

>  <observed.result>
61.6

$$$$
>  <compound>
CCOc1cnc(-c2noc(C3CCN(C(=O)CNC(=O)c4ccccc4)CC3)n2)nc1OC [Compound 166]

>  <subject.of.test>
SCD5 (Homo sapiens, UniProt Q86SK9)

>  <quantity.kind>
SCD5 % Max Inhibition

>  <observed.result>
68.87

$$$$
>  <compound>
Cc1nn(C)c2cc(-c3noc(N4CC5(CN(C(=O)CNC(=O)c6ccccc6)C5)C4)n3)ccc12 [Compound 212]

>  <subject.of.test>
SCD5 (Homo sapiens, UniProt Q86SK9)

>  <quantity.kind>
SCD5 % Max Inhibition

>  <observed.result>
76.28

$$$$
>  <compound>
Cn1ncc2c1CN(c1noc(C3CCN(C(=O)C4CC(=O)N(c5ccccc5)C4)CC3)n1)CC2 (stereo not shown) [Compound 243]

>  <subject.of.test>
SCD5 (Homo sapiens, UniProt Q86SK9)

>  <quantity.kind>
SCD5 % Max Inhibition

>  <observed.result>
72.11

$$$$
>  <compound>
O=C([C@H]1CC(=O)N(c2ccccc2)C1)N1CCC(c2nc(N3CC4(COC4)C3)no2)CC1 [Compound 316]

>  <subject.of.test>
SCD5 (Homo sapiens, UniProt Q86SK9)

>  <quantity.kind>
SCD5 % Max Inhibition

>  <observed.result>
80

$$$$
>  <compound>
Cc1nn(C)c2nc(-c3noc(C4CCN(C(=O)CN5Cc6ccccc6C5=O)CC4)n3)ccc12 [Compound 146]

>  <subject.of.test>
SCD5 (Homo sapiens, UniProt Q86SK9)

>  <quantity.kind>
SCD5 % Max Inhibition

>  <observed.result>
25.62

$$$$
>  <compound>
CCN1CCOc2cc(-c3noc(C4CCN(C(=O)CNC(=O)c5ccccc5)CC4)n3)ccc21 [Compound 110]

>  <subject.of.test>
SCD5 (Homo sapiens, UniProt Q86SK9)

>  <quantity.kind>
SCD5 % Max Inhibition

>  <observed.result>
65.07

$$$$
>  <compound>
Cc1nn(C)c2cc(-c3noc(C4CCN(C(=O)CC5CC5)CC4)n3)ccc12 [Compound 264]

>  <subject.of.test>
SCD5 (Homo sapiens, UniProt Q86SK9)

>  <quantity.kind>
SCD5 % Max Inhibition

>  <observed.result>
7.97

$$$$
>  <compound>
CCOc1ccc(-c2noc(N3CCN(C(=O)CN4Cc5ccccc5C4=O)CC3)n2)cc1OC [Compound 225]

>  <subject.of.test>
SCD5 (Homo sapiens, UniProt Q86SK9)

>  <quantity.kind>
SCD5 % Max Inhibition

>  <observed.result>
88.95

$$$$
>  <compound>
COc1ccc(-c2csc(C3CCN(C(=O)CNC(=O)c4ccccc4)CC3)n2)cc1OC [Compound 38]

>  <subject.of.test>
SCD5 (Homo sapiens, UniProt Q86SK9)

>  <quantity.kind>
SCD5 % Max Inhibition

>  <observed.result>
64.24

$$$$
>  <compound>
O=C(C1CC(=O)N(c2cccc(Cl)c2)C1)N1CCC(c2nc(Cl)no2)CC1 (stereo not shown) [Compound 348]

>  <subject.of.test>
SCD5 (Homo sapiens, UniProt Q86SK9)

>  <quantity.kind>
SCD5 % Max Inhibition

>  <observed.result>
59.2

$$$$
>  <compound>
Cc1nn(C)c2cc(-c3noc(C4CCN(C(=O)[C@H]5CC(=O)N(c6ccccc6)C5)C(C)C4)n3)ccc12 (stereo partly shown) [Compound 240]

>  <subject.of.test>
SCD5 (Homo sapiens, UniProt Q86SK9)

>  <quantity.kind>
SCD5 % Max Inhibition

>  <observed.result>
12.95

$$$$
>  <compound>
CCN(Cc1nc(-c2ccc(OC)c(OC)c2)no1)C(=O)Cc1ccccc1 [Compound 492]

>  <subject.of.test>
SCD5 (Homo sapiens, UniProt Q86SK9)

>  <quantity.kind>
SCD5 % Max Inhibition

>  <observed.result>
75.64

$$$$
>  <compound>
Cc1nn(C)c2cc(-c3noc(C4CCN(C(=O)CNC(=O)c5ccccc5C(F)(F)F)CC4)n3)ccc12 [Compound 271]

>  <subject.of.test>
SCD5 (Homo sapiens, UniProt Q86SK9)

>  <quantity.kind>
SCD5 % Max Inhibition

>  <observed.result>
53.6

$$$$
>  <compound>
Cn1ncc2ccc(-c3noc(C4CCN(C(=O)OC(C)(C)C)CC4)n3)cc21 [Compound 359]

>  <subject.of.test>
SCD5 (Homo sapiens, UniProt Q86SK9)

>  <quantity.kind>
SCD5 % Max Inhibition

>  <observed.result>
0.81

$$$$
>  <compound>
Cc1nn(C)c2cc(-c3noc(C4CCN(C(=O)CNC(=O)c5ccsn5)CC4)n3)ccc12 [Compound 226]

>  <subject.of.test>
SCD5 (Homo sapiens, UniProt Q86SK9)

>  <quantity.kind>
SCD5 % Max Inhibition

>  <observed.result>
0.69

$$$$
